The reported numbers originate from the NIST ThermoML archive (doi:10.1021/je801006q).

Reported conditions: 293.15 K; 101.33 kPa; Liquid
Readout name: viscosity (mPa·s)
Hi! Could you send only the number? It should be in mPa·s, unit omitted.

| Compound | Unit of measurement | viscosity |
| --- | --- | --- |
| O=C1CCCN1 [2-pyrrolidinone] | mPa·s | 15.84 |
| CC(C)(C)O [2-methylpropan-2-ol] | mPa·s | 5.486 |
| CC(C)CO [2-methyl-1-propanol] | mPa·s | 3.943 |
| CCC(C)O (stereo not given) [butan-2-ol] | mPa·s | 3.625 |

# evaluate next
Asked: Give the measured viscosity of CCCCO [butan-1-ol] .
Given back: 2.941

* * *

Reported conditions: 303.15 K; 101.33 kPa; Liquid
Reported mass density values for a set of molecules
Give just the numeric value; kg/m3 need not be written.

| Molecule | Readout name | Unit of measurement | Measured number |
| --- | --- | --- | --- |
| CC(C)CO | mass density | kg/m3 | 794.32 |
| O=C1CCCN1 | mass density | kg/m3 | 1103.38 |
| CC(C)(C)O | mass density | kg/m3 | 775.76 |
| CCC(C)O (stereo not given) | mass density | kg/m3 | 798.45 |

Query molecule follows.
Asked: Fill blank: measured mass density of the molecule CCCCO is ____.
Given back: 801.92

* * *

Listing: mass density of selected compounds
Reported conditions: 293.15 K; 101.33 kPa; Liquid
# unit: kg/m3 | format: bare number

| Compound | Unit of measurement | mass density |
| --- | --- | --- |
| CCC(C)O (stereo not given) | kg/m3 | 805.54 |
| CC(C)(C)O | kg/m3 | 795.68 |
| CCCCO | kg/m3 | 809.52 |
| CC(C)CO | kg/m3 | 801.28 |

Then there is this compound:
Asked: So what does the record say about mass density for O=C1CCCN1 ?
Given back: 1109.84

* * *

// values below are reported mass density
Reported conditions: 298.15 K; 101.33 kPa; Liquid
Report the figure in kg/m3 without appending any unit label.

Past entries and their recorded results:
| Compound | Measured number |
| --- | --- |
| CC(C)CO [2-methyl-1-propanol] | 797.74 |
| CC(C)(C)O [2-methylpropan-2-ol] | 780.65 |
| O=C1CCCN1 [2-pyrrolidinone] | 1106.98 |
| CCC(C)O (stereo not given) [butan-2-ol] | 802.06 |

Now look at this entry.
Asked: Using the record for CCCCO [butan-1-ol] , report its mass density.
Given back: 805.54
